assayNotes: thallium influx changes without GIRK channels – cell-based, HEK-293 rmGlu8, no GIRK, thallium flux, counter-screen for GIRK activator project, confirmation (AID 623868);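 also: extra codes mark interference with 3 for fluorescent and 4 for baseline rise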
conditionDetails: thallium flux fluorescence, at 10 µM, actives lie on both sides, codes: 1 enhancer, -1 blocker, 0 none, thallium stimulus containing EC20 glutamate
The campaign covered roughly 2,100 compounds. About 760 (36%) were called active.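 The calls were made as follows: active = thallium-flux fluorescence traces judged by eye to show enhanced or reduced glutamate response, manual score 1 or -1, so both directions (some results past the limit were not filed as active); inactive = the rest, including fluorescent or raised-baseline compounds.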 These entries were drawn from the full list.
Outcome field: choose from TRUE for active, FALSE for inactive

A selection of reference data follows.
>>> categorylabel("CCCn1nnc(NC(=O)COc2ccc(C3CCCCC3)cc2)n1")
"FALSE"
>>> categorylabel("O=C(COC(=O)C1CC2C=CC1C2)Nc1ccc2c(c1)OC(F)(F)O2 (configuration not stated)")
"FALSE"
>>> categorylabel("CCOC(=O)C1CCCN(c2ncnc3c2oc2ccccc23)C1 (configuration not stated)")
"FALSE"
>>> categorylabel("COc1cc(C(=S)N2CCCC2)cc(OC)c1OS(=O)(=O)c1ccc(NC(C)=O)cc1")
"TRUE"
>>> categorylabel("CS(=O)(=O)N(CC(=O)NCc1ccco1)c1ccc(Cl)c(C(F)(F)F)c1")
"FALSE"

Task: Which result was noted for this compound in the test: CC(C)N=c1scc(-c2cccs2)n1/N=C/c1ccc(O)c(O)c1O
Output: FALSE

Task: Which result was noted for this compound in the test: CN(C(=O)c1cccnc1)c1nnc(-c2cnccn2)s1
Output: FALSE

Task: Which result was noted for this compound in the test: CCCCn1nnc(NC(=S)NC(=O)c2ccc(-c3cccc(Cl)c3Cl)o2)n1
Output: TRUE

Task: Which result was noted for this compound in the test: CCCn1c(=N)c(C(=O)NCc2ccc3c(c2)OCO3)cc2c(=O)n3cccc(C)c3nc21
Output: FALSE

Task: Which result was noted for this compound in the test: CCOC(=O)N1CCN(C(=O)CN(Cc2ccccc2)S(=O)(=O)c2ccc(OC)c(C)c2)CC1
Output: FALSE

Task: Which result was noted for this compound in the test: CCOC(=O)c1c(C)oc2ccc(O)c(CN3CCCCC3)c12
Output: FALSE

Task: Which result was noted for this compound in the test: COc1ccc(C(=O)Nc2ccc(S(=O)(=O)NCc3ccco3)cc2)cc1OC
Output: FALSE

* * *

assayNotes: thallium influx changes without GIRK channels – cell-based, HEK-293 rmGlu8, no GIRK, thallium flux, counter-screen for GIRK activator project, confirmation (AID 623868);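 also: extra codes mark interference with 3 for fluorescent and 4 for baseline rise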
conditionDetails: thallium flux fluorescence, at 10 µM, actives lie on both sides, codes: 1 enhancer, -1 blocker, 0 none, thallium stimulus containing EC20 glutamate
The whole screen tested about 2,100 compounds, of which about 760 (36%) were called active. The list is a sample of the results.
A collection of compounds and their measured manual score
Lab note: record the figure alone, no unit after it.

# annotated cases, reported manual score shown
>>> recordednumber("CCC(=O)N1CCN(c2ccccc2NC(=O)COc2cccc(C)c2)CC1")
-1
>>> recordednumber("Cc1cccc(OCC(O)CN2C(C)(C)CC(O)CC2(C)C)c1 (stereo not drawn)")
0

In plain terms, CC1(C)Cc2cccc(OCC(=O)Nc3ccccc3N3CCOCC3)c2O1 has a documented manual score of 0

* * *

assayNotes: thallium influx changes without GIRK channels – cell-based, HEK-293 rmGlu8, no GIRK, thallium flux, counter-screen for GIRK activator project, confirmation (AID 623868);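 also: extra codes mark interference with 3 for fluorescent and 4 for baseline rise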
conditionDetails: thallium flux fluorescence, at 10 µM, actives lie on both sides, codes: 1 enhancer, -1 blocker, 0 none, thallium stimulus containing EC20 glutamate
The whole screen tested about 2,100 compounds, of which about 760 (36%) were called active.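 The calls were made as follows: active = thallium-flux fluorescence traces judged by eye to show enhanced or reduced glutamate response, manual score 1 or -1, so both directions (some results past the limit were not filed as active); inactive = the rest, including fluorescent or raised-baseline compounds.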 These entries were drawn from the full list.
Outcome field: choose from active, inactive

A selection of reference data follows.
>>> categorylabel("COC(=O)c1ccccc1NC(=O)Nc1cnccn1")
"inactive"
>>> categorylabel("CCOC(=O)C1=C(C)NC2=C(C(=O)C(C(=O)OCC)C(c3ccccc3OC)C2)C1c1ccccn1 (stereo not given)")
"inactive"
>>> categorylabel("O=C(NNc1nc2ccccc2nc1C(F)(F)F)c1ccccc1")
"active"
>>> categorylabel("Cc1ccc(-c2nnn(CC(=O)N3CCCCC3)n2)c(-n2cnnn2)c1")
"inactive"
>>> categorylabel("Cc1cccc(C(=O)NNC(=O)C(=O)NC(C)(C)C)c1")
"active"
>>> categorylabel("O=C(NNS(=O)(=O)c1cc(Cl)cc(Cl)c1)c1sccc1-n1cccc1")
"inactive"

As a next step, examine the compound that follows.
Task: Which result was noted for this compound in the test: Cc1nc(/N=C(\N)NC(=O)c2ccccc2)nc2ccccc12
Output: inactive
